# assay.method.text: Inhibitory concentration against Hepatitis B virus reverse transcriptase (HBV-RT)
observed.property: IC50 (ng/mL)

A. CC(C)NC(=O)c1ccc(C(=O)N2CCN(c3ncccc3NC(C)C)CC2)nc1
B. CC(C)Nc1cccnc1N1CCN(C(=O)c2ccc(C(=O)NCCCO)cn2)CC1
C. CC(C)(CO)NC(=O)c1ccc(C(=O)N2CCN(c3ncccc3N)CC2)nc1
D. CC(C)CNC(=O)c1ccc(C(=O)N2CCN(c3ncccc3NC(C)C)CC2)nc1
Inquiry: Please order the records by their reported IC50, lowest number first. Please, when replying, give the labels in the order that was requested.
Reply text: D, B, C, A
(D: 2 ng/mL, B: 12 ng/mL, C: 38 ng/mL, A: 149 ng/mL)

1. Cc1ccn(NC(=O)c2ccc(C(=O)N3CCN(c4ncccc4NC(C)C)CC3)nc2)n1
2. CC(C)CNc1cccnc1N1CCN(C(=O)c2ccc(C(=O)NCCCn3ccnc3)cn2)CC1
Inquiry: For 1 and 2 , which recorded IC50 is lower? // return label of chosen record
Reply text: 2

A. CC(C)CNc1cccnc1N1CCN(C(=O)c2ccc(C(=O)NC(C)(C)CO)cn2)CC1
B. CCNc1cccnc1N1CCN(C(=O)c2ccc(C(=O)NCCO)cn2)CC1
C. Cc1cc(NC(=O)c2ccc(C(=O)N3CCN(c4ncccc4NC(C)C)CC3)nc2)no1
Inquiry: List the 3 entries from lowest IC50 to highest IC50 value. Please, when replying, give the labels in the order that was requested.
Reply text: A, B, C
